Measured IC50 of individual entries
- experimental_system: Mitogen-activated protein kinase 14 (Homo sapiens, UniProt Q16539)
- Sequence (Q16539 whole entry): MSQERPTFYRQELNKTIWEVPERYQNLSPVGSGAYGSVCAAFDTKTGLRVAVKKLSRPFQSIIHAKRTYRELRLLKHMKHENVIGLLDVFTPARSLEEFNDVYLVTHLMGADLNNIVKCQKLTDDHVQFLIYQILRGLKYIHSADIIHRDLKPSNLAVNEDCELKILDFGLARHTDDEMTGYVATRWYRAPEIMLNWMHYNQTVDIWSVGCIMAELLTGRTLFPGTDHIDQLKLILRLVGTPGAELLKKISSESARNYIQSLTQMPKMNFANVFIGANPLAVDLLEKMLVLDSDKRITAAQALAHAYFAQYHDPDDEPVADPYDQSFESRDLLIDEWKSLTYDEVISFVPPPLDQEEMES
- assay_method_text: Inhibition of human recombinant full length GST-tagged p38alpha expressed in Escherichia coli preincubated for 2 hrs followed by ATP addition and measured after 1 hr by Alpha screen assay
Express the result in nM but write the number alone.

query_smiles	reading
C[C@H]1CCCCN1c1nnc2ccc(O[C@@H]3CC[C@H](NC(=O)Nc4cc(C(C)(C)C)nn4-c4cccc(OCCN5CCN(C)CC5)c4)c4ccccc43)cn12	0.3
CC(C)c1nnc2ccc(O[C@@H]3CC[C@H](NC(=O)Nc4cc(C(C)(C)C)nn4-c4ccccc4)c4ccccc43)cn12	0.06

Turning now to a further record.
Given the compound CC(C)c1nnc2ccc(O[C@@H]3CC[C@H](NC(=O)Nc4cc(C(C)(C)C)nn4-c4ccc(Cl)c(O)c4)c4ccccc43)cn12 , what is its reported IC50?
0.05

###

- experimental_system: Mitogen-activated protein kinase 14 (Homo sapiens, UniProt Q16539)
- assay_method_text: Inhibition of human recombinant full length GST-tagged p38alpha expressed in Escherichia coli preincubated for 2 hrs followed by ATP addition and measured after 1 hr by Alpha screen assay
property_label: pIC50
// pIC50 here means minus log10 of the molar concentration (mol/L)

query_smiles	pIC50
CC(C)c1nnc2ccc(O[C@@H]3CC[C@H](NC(=O)Nc4cc(C(C)(C)C)nn4C)c4ccccc43)cn12	9.52
C[C@@H]1CCC[C@H](C)N1c1nnc2ccc(O[C@@H]3CC[C@H](NC(=O)Nc4cc(C(C)(C)C)nn4-c4cccc(OCCN(C)C)c4)c4ccccc43)cn12	9.52

Turning now to a further record.
Given the compound C[C@H]1CCCCN1c1nnc2ccc(O[C@@H]3CC[C@H](NC(=O)Nc4cc(C(C)(C)C)nn4-c4cnn(CCN5CCN(C)CC5)c4)c4ccccc43)cn12 , what is its reported pIC50?
9.52
